- System: K-562 leukemia
- experimental-protocol: NCI-60 one-dose screen, 48 h
- condition-summary: 10 µM
About 83,000 compounds went through this panel and 20% of them were active in at least one assay; those are over-represented in the sample as a whole. The source made the active and inactive calls. How the source made its calls: active means growth percent below 10; inactive means the rest.
Labels: class 1 (active), class 0 (inactive)

In [3]: df
Out[3]:
                                    compound          system    label
 0                    CNc1nc(NC)c2cn[nH]c2n1  K-562 leukemia  class 0
 1  OC1OC(COC(c2ccccc2)(c2ccccc2)c2ccccc2)C(O)C(O)C1O (centres undefined)  K-562 leukemia  class 0
 2  CC1(C)Nc2cccc3c(N=Nc4ccc(N=Nc5ccccc5)c5ccccc45)ccc(c23)N1  K-562 leukemia  class 0
 3  O=C(CCl)Nc1ccc2c(c1)C(=O)c1ccc(NC(=O)CCl)cc1C2=O  K-562 leukemia  class 1
 4  CSC[C@H](NC(=O)COc1cccc2cnccc12)C(=O)NC(Cc1ccccc1)C(O)C(=O)N1CSC[C@H]1C(=O)NC(C)(C)C (some centres undefined)  K-562 leukemia  class 0
 5  O=C(Cc1nc2ccc([N+](=O)[O-])cc2nc1CC(=O)c1ccccc1)c1ccccc1  K-562 leukemia  class 0
 6  O=[N+]([O-])c1ccc(/C=C/C=C/c2ccccc2)c(Cl)c1  K-562 leukemia  class 0
 7  CC(=Nc1ccccc1)C1=C(O)C(Cc2cccc(F)c2)NC1=O (centres undefined)  K-562 leukemia  class 1
 8      O=[N+]([O-])c1ccc(Cl)c(S(=O)(=O)O)c1  K-562 leukemia  class 0
 9                           COC(=O)c1cccnc1  K-562 leukemia  class 0
10  CC1(O)OC(COc2ccc(Cl)cc2)COC1O (centres undefined)  K-562 leukemia  class 0
11       CCCCCCCCCCC1CO1 (centres undefined)  K-562 leukemia  class 0
12                           Cc1ccncc1C(N)=O  K-562 leukemia  class 0
13               O=C1C=CC(=O)N1c1ccc(I)cc1Cl  K-562 leukemia  class 0
14                    C=CCNC(=O)c1ccc(OC)cc1  K-562 leukemia  class 0
15                         COC(=O)c1ccccc1Br  K-562 leukemia  class 0
16             Cc1cccc(C(=O)N(C(C)C)C(C)C)c1  K-562 leukemia  class 0
17  COc1cc(C2c3cc4c(cc3C3OC(=O)C2C3CO)OCO4)cc(OC)c1OC (centres undefined)  K-562 leukemia  class 1
18  FC(F)(F)c1ccc2c(c1)N(CCCN1CCN(C3CC3)CC1)c1ccccc1S2  K-562 leukemia  class 0
19  Cc1ccc(Cl)cc1N1C(=O)CC(Sc2ccccc2N)C1=O (centres undefined)  K-562 leukemia  class 0
20  CCCC1(c2ccccc2)NC(=O)NC1=O (centres undefined)  K-562 leukemia  class 0
21                       CN(C)/N=C/c1ccccc1O  K-562 leukemia  class 0
22  CCOC(=O)C(=O)C=P(c1ccccc1)(c1ccccc1)c1ccccc1  K-562 leukemia  class 0
23                          NC(=S)NN=C1CCCC1  K-562 leukemia  class 0
24                          N#CCCc1ccc(O)cc1  K-562 leukemia  class 0
25                               CCOC(=O)CNN  K-562 leukemia  class 0
26                       c1ccc(Sc2ccccc2)cc1  K-562 leukemia  class 0
27                         Oc1ccccc1-c1nnco1  K-562 leukemia  class 0
28  CS(=O)CC1=NC(=N)N=C1CS(C)=O (centres undefined)  K-562 leukemia  class 0
29                         Nc1ncnc2[nH]ncc12  K-562 leukemia  class 0
30                  NC(=O)NC(=O)c1ccc(Cl)cc1  K-562 leukemia  class 0
31  Cc1cc(N2CCC(N3CCCC3)CC2)nc(/N=C(\N)Nc2ccc(Cl)c(Cl)c2)n1  K-562 leukemia  class 1
32                   CN(C)CCC(=O)c1ccc(O)cc1  K-562 leukemia  class 0
33         N#C/C(=C\c1cc(O)c(O)c(O)c1)C(N)=O  K-562 leukemia  class 0
34  Cc1ccccc1N=C(c1ccccc1)C1C(=O)c2ccccc2C1=O  K-562 leukemia  class 0
35               O=C(c1ccc(O)cc1)c1ccc(O)cc1  K-562 leukemia  class 0
36  CN(C)CCN(C)CC(C)(C)C(=O)/C=C/c1ccc(Cl)cc1  K-562 leukemia  class 1
37               O=S(=O)(O)c1ccc(O)c2ccccc12  K-562 leukemia  class 0
38  CC1CC(O)C2C3(C)CCCC2(COC3=O)C12CCC1(CCOC1=O)O2 (centres undefined)  K-562 leukemia  class 0
39  O=S(=O)(O)C(Nc1ccccc1)c1ccccc1 (centres undefined)  K-562 leukemia  class 0
40                          CNC(=S)NC(C)(C)C  K-562 leukemia  class 0
41  CC1(C(N)=O)CCC(C(=O)O)C1(C)C (centres undefined)  K-562 leukemia  class 0
42                   O=C(Cc1ccccc1)Cc1ccccc1  K-562 leukemia  class 0
43   CC(=O)Cc1cc(-c2cc(CC(C)=O)[nH]n2)n[nH]1  K-562 leukemia  class 0
44          O=C(NN=C1CCCCC1)C(=O)NN=C1CCCCC1  K-562 leukemia  class 0
45  CN1C(=O)CN2CCc3ccccc3C2c2cc(Cl)ccc21 (centres undefined)  K-562 leukemia  class 0
46           O=C(/C=C/C(=O)c1ccccc1)c1ccccc1  K-562 leukemia  class 0
47  OC(c1ccccn1)C(O)c1ccccn1 (centres undefined)  K-562 leukemia  class 0
48   O=C(Nc1cc(-c2ccccc2)[nH]n1)c1ccc(Cl)cc1  K-562 leukemia  class 0
49                             Cc1cccc(CO)c1  K-562 leukemia  class 0
50      CCCC[P+](c1ccccc1)(c1ccccc1)c1ccccc1  K-562 leukemia  class 0
51                      NCCC(=O)c1ccc(Cl)cc1  K-562 leukemia  class 0
52                    Cc1nc2c(ccc3ccccc32)s1  K-562 leukemia  class 0
53                           C=CCNc1nnc(C)s1  K-562 leukemia  class 0

Values compiled from PubChem BioAssay (NCI).
